measurement_description: Gravimetric solubility measurement in solvents
Assay type: physicochemical
condition: organic solvent or mixture, thermodynamic from solid; EtOAc; 45° C.; slurried 3 days; read-out: Solubility at 45° C.
metric_name: solubility at 3 days (µg/mL)
A number alone suffices; assume µg/mL.

-- ask Tell us which solubility at 3 days value is on record for CC(C)(C)c1[nH]cnc1/C=c1\[nH]c(=O)/c(=C/c2ccccc2)[nH]c1=O [plinabulin monohydrate]
-- reply 8000

----------
measurement_description: Gravimetric solubility measurement in solvents
Type: physicochemical
condition: organic solvent or mixture, thermodynamic from solid; IPA; 15° C.; slurried 3 days; read-out: Solubility at 15° C.
metric_name: solubility at 3 days (µg/mL)
A number alone suffices; assume µg/mL.

-- ask Tell us which solubility at 3 days value is on record for CC(C)(C)c1[nH]cnc1/C=c1\[nH]c(=O)/c(=C/c2ccccc2)[nH]c1=O [plinabulin monohydrate]
-- reply 1000

----------
measurement_description: Gravimetric solubility measurement in solvents
Format: physicochemical
condition: organic solvent or mixture, thermodynamic from solid; MEK; 15° C.; slurried 3 days; read-out: Solubility at 15° C.
metric_name: solubility at 3 days
Report the figure along with its unit, number first.

-- ask Tell us which solubility at 3 days value is on record for CC(C)(C)c1[nH]cnc1/C=c1\[nH]c(=O)/c(=C/c2ccccc2)[nH]c1=O [plinabulin monohydrate]
-- reply 11 mg/mL

----------
measurement_description: Gravimetric solubility measurement in solvents
Assay type: physicochemical
condition: organic solvent or mixture, thermodynamic from solid; MTBE; 45° C.; slurried 3 days; read-out: Solubility at 45° C.
metric_name: solubility at 3 days (µg/mL)
A number alone suffices; assume µg/mL.

-- ask Tell us which solubility at 3 days value is on record for CC(C)(C)c1[nH]cnc1/C=c1\[nH]c(=O)/c(=C/c2ccccc2)[nH]c1=O [plinabulin monohydrate]
-- reply 5000

----------
measurement_description: Gravimetric solubility measurement in solvents
Assay type: physicochemical
condition: organic solvent or mixture, thermodynamic from solid; Acetone; 15° C.; slurried 3 days; read-out: Solubility at 15° C.
metric_name: solubility at 3 days (mg/mL)
A number alone suffices; assume mg/mL.

-- ask Tell us which solubility at 3 days value is on record for CC(C)(C)c1[nH]cnc1/C=c1\[nH]c(=O)/c(=C/c2ccccc2)[nH]c1=O [plinabulin monohydrate]
-- reply 11

----------
measurement_description: Gravimetric solubility measurement in solvents
Type: physicochemical
condition: organic solvent or mixture, thermodynamic from solid; THF; 45° C.; slurried 3 days; read-out: Solubility at 45° C.
metric_name: solubility at 3 days (mg/mL)
A number alone suffices; assume mg/mL.

-- ask Tell us which solubility at 3 days value is on record for CC(C)(C)c1[nH]cnc1/C=c1\[nH]c(=O)/c(=C/c2ccccc2)[nH]c1=O [plinabulin monohydrate]
-- reply 96

----------
measurement_description: Gravimetric solubility measurement in solvents
Assay type: physicochemical
condition: organic solvent or mixture, thermodynamic from solid; THF; 15° C.; slurried 3 days; read-out: Solubility at 15° C.
metric_name: solubility at 3 days (mg/mL)
A number alone suffices; assume mg/mL.

-- ask Tell us which solubility at 3 days value is on record for CC(C)(C)c1[nH]cnc1/C=c1\[nH]c(=O)/c(=C/c2ccccc2)[nH]c1=O [plinabulin monohydrate]
-- reply 40

----------
measurement_description: Gravimetric solubility measurement in solvents
Type: physicochemical
condition: organic solvent or mixture, thermodynamic from solid; Toluene; 45° C.; slurried 3 days; read-out: Solubility at 45° C.
metric_name: solubility at 3 days (µg/mL)
A number alone suffices; assume µg/mL.

-- ask Tell us which solubility at 3 days value is on record for CC(C)(C)c1[nH]cnc1/C=c1\[nH]c(=O)/c(=C/c2ccccc2)[nH]c1=O [plinabulin monohydrate]
-- reply 7000

----------
measurement_description: Gravimetric solubility measurement in solvents
Format: physicochemical
condition: thermodynamic from solid; Water; 45° C.; slurried 3 days; read-out: Solubility at 45° C.
metric_name: solubility at 3 days

-- ask Tell us which solubility at 3 days value is on record for CC(C)(C)c1[nH]cnc1/C=c1\[nH]c(=O)/c(=C/c2ccccc2)[nH]c1=O [plinabulin monohydrate]
-- reply < 1000 µg/mL

----------
measurement_description: Gravimetric solubility measurement in solvents
Assay type: physicochemical
condition: organic solvent or mixture, thermodynamic from solid; ACN; 45° C.; slurried 3 days; read-out: Solubility at 45° C.
metric_name: solubility at 3 days (µg/mL)
A number alone suffices; assume µg/mL.

-- ask Tell us which solubility at 3 days value is on record for CC(C)(C)c1[nH]cnc1/C=c1\[nH]c(=O)/c(=C/c2ccccc2)[nH]c1=O [plinabulin monohydrate]
-- reply 7000

----------
measurement_description: Gravimetric solubility measurement in solvents
Type: physicochemical
condition: organic solvent or mixture, thermodynamic from solid; EtOH:water (95:5); 45° C.; slurried 3 days; read-out: Solubility at 45° C.
metric_name: solubility at 3 days (mg/mL)
A number alone suffices; assume mg/mL.

-- ask Tell us which solubility at 3 days value is on record for CC(C)(C)c1[nH]cnc1/C=c1\[nH]c(=O)/c(=C/c2ccccc2)[nH]c1=O [plinabulin monohydrate]
-- reply 13
